# Tested on: SNB-19 CNS
# PROTOCOL DETAILS: NCI tumour cell line growth inhibition, 48 h; in the data active = GI50 below about 0.43 µM; inactive = the rest
Thanks in advance; please answer with one of these: active, inactive

# MOLECULE, CLASS LABEL
records = [
    ("COc1cc([N+](=O)[O-])c(OC)cc1-c1nc2sc(C)cn2c1/C(N)=N/C(=N)N", "inactive"),
    ("O=C1CC(c2ccccc2)Cc2nc3ccc(Br)cc3cc21 (centres undefined)", "inactive"),
    ("COc1ccc(NC2=C(I)C(=O)c3ncccc3C2=O)cc1", "inactive"),
]

Query string: Outcome? `N#Cc1c(NC(=O)c2ccc(F)cc2)sc2c1CCCC2`
Result string: inactive

Query string: Hi team, can someone confirm the assay call for `CCN(CC)CC[n+]1ccc2c(C)c3[nH]c4ccc(O)cc4c3c(C)c2c1` ?
Result string: inactive

Query string: Check the results log: what was the call for `CC(=O)CC/C=C(\C)[C@H](O)[C@H](C)C(=O)O[C@H]1C[C@H](C)C=C2C=C[C@@]3(C)O[C@@H](O)CC(=O)[C@]3(C)[C@H]21` ?
Result string: active

Query string: # lookup: test call for `O=Nc1c(-c2c(O)[nH]c3cc(Br)ccc23)[nH]c2ccccc12`
Result string: inactive

Query string: Short answer needed: outcome of this test for `COc1cc(CNCCN2C(=O)c3ccc4c5c(ccc(c35)C2=O)C(=O)N(CCNCc2cc(OC)c(OC)c(OC)c2)C4=O)cc(OC)c1OC` ?
Result string: inactive

Query string: Short answer needed: outcome of this test for `C=CC(=O)N1C[C@@H]2CCOc3c(Cl)c(-c4c(O)cccc4F)c(F)c4ncnc(c34)N2C[C@H]1C` ?
Result string: inactive

* * *

# System: UO-31 renal
# PROTOCOL DETAILS: NCI tumour cell line growth inhibition, 48 h
ASSAY ENDPOINT: TGI (µM)
Respond with the bare value in µM.

// field: TGI; key: `C=CC(=O)NC(N)=NC#N` ; value = 333

For this compound ( `O=C1C=CC(=C(c2ccccc2)c2ccc(O)cc2)C=C1` ), measured TGI is 29.5

Quick note, TGI for COC(=O)C1=C(C)N2CCSC2(C)C(C(=O)OC)C1c1cccc(Cl)c1 (stereo not given) landed at 38.3

Data point: Cc1cc(N2CCCCC2)nc(NC2CCCC(Nc3ccnc4cc(Cl)ccc34)C2)n1 (stereo not given) ; TGI = 2.48

* * *

# Test system: U251 CNS
# PROTOCOL DETAILS: NCI tumour cell line growth inhibition, 48 h
ASSAY ENDPOINT: TGI

# COMPOUND, REPORTED
measured = [
    ("O/N=C(/CC(O)(C(F)(F)F)C(F)(F)F)c1ccccc1", "> 10 µM"),
]

For `CON(C)C(=O)[C@H]1C[C@@]1(C)CO` the compound record lists TGI as > 100 µM

compound CC(C)(C)C1CCC2c3c([nH]c4ccccc34)C3C(=O)N(c4ccccc4Cl)C(=O)C3C2C1 (stereo not given) , TGI observed: 50.6 µM

Notebook: `O=C1C=CC(=C(c2ccccc2)c2ccc(O)cc2)C=C1` , TGI read as 29.2 µM

// field: TGI; key: `COc1cc(-c2nc3sc(C)cn3c2/C=C2\C(=O)Nc3ccccc32)c(Br)c(OC)c1OC` ; value = 54.8 µM

* * *

# Tested on: SF-539 CNS
# PROTOCOL DETAILS: NCI tumour cell line growth inhibition, 48 h
Here the recorded TGI is given for each entry.

# COMPOUND, REPORTED
data = [
    ("COc1cc(CC2c3cc(OC)c(OC)cc3CCN2C)ccc1O (configuration not stated)", "> 100 µM"),
    ("CC(=O)OCC1OC(OC2C(COC(C)=O)OC(Sc3ccccc3C)C(OC(C)=O)C2OC(C)=O)C(OC(C)=O)C(OC(C)=O)C1OC(C)=O (configuration not stated)", "> 100 µM"),
    ("CC(=O)NC(Cc1ccccc1)NC(=O)O (configuration not stated)", "> 100 µM"),
    ("CCOC(=O)C(CCC(N)=O)(CCC(=O)OC)C(=O)OCC", "> 100 µM"),
    ("CC(=O)O[C@H]1CCN2C(=O)C=CC(OCc3ccccc3)C12 (some centres not stated)", "> 100 µM"),
]

Memo: COc1ccc(N2C(=O)C3c4[nH]c5ccccc5c4C4CC(C)(C)CC(C)(C)C4C3C2=O)cc1 (configuration not stated) , reported TGI: 27.2 µM

Kindly note the recorded TGI for `O=C(O)C1(Cc2ccccc2)Cc2cc3c(cc2C1)CCC3` , which is > 100 µM

* * *

# Test system: SK-OV-3 ovarian
# PROTOCOL DETAILS: NCI tumour cell line growth inhibition, 48 h; in the data active means GI50 below about 0.43 µM; inactive means the rest
The reply should name one outcome from Yes for active, No for inactive

# MOLECULE, CLASS LABEL
rows = [
    ("C=CC(=O)N1C[C@@H]2CCOc3c(Cl)c(-c4c(O)cccc4F)c(F)c4ncnc(c34)N2C[C@H]1C", "No"),
    ("CC(C)(c1ccccc1)c1cc(O)c(C(C)(C)c2ccccc2)cc1O", "No"),
    ("Cc1cnc2oc3ccc(O)cc3c2c1-c1ccccc1", "No"),
    ("C#Cc1cccc(Nc2ncnc3ccc(OCCCCNCCS(C)(=O)=O)cc23)c1", "No"),
    ("COc1cc([N+](=O)[O-])c(OC)cc1-c1nc2sc(C)cn2c1/C(N)=N/C(=N)N", "No"),
    ("COc1ccc(C2CC(c3ccc(Nc4ccnc5cc(Cl)ccc45)cc3)=NN2C=O)cc1 (centres undefined)", "No"),
    ("COC(=O)[C@]12CC[C@@H](C)[C@H](C)[C@@H]1C1=CC[C@@H]3[C@@]4(C)C[C@@H](OC(=O)/C=C/c5ccccc5)[C@H](O)[C@@](C)(CO)[C@@H]4[C@H](O)C[C@@]3(C)[C@]1(C)CC2", "No"),
    ("COC1=C(C)C(=O)c2c(c(CCCl)c3n2CCC3OC(C)=O)C1=O (centres undefined)", "Yes"),
]

Proceed to the following item.
Query string: Hi, sorry to bother you, what did the test record for `COc1ccc(/C=C2\COc3ccc(O)c(O)c3C2=O)c(OC)c1OC` ?
Result string: No

* * *

# Test system: HCC-2998 colon
# PROTOCOL DETAILS: NCI tumour cell line growth inhibition, 48 h
Where a SMILES comes first, the peptide text is derived from it. [ ]: non-standard residue; d: D form. The star is where a group is joined. ξ: configuration not given here. ξF = NC(Cc1ccccc1)C(=O)O; Cbz = O=C(OCc1ccccc1)*; Aib = CC(C)(N)C(=O)O
ASSAY ENDPOINT: TGI

Below, 10 compounds whose answers are already recorded.
# COMPOUND, TGI
rows = [
    ("O=C1CSC(c2ccccc2)N1c1ccc(-n2c(-c3ccccc3)nc3ccccc3c2=O)cc1 (stereo not given)", "> 100 µM"),
    ("CCOC(=O)CCC(C(=O)OCC)n1nc2ccc(Nc3c(C)[n+]([O-])c4cc(F)c(OCC)cc4[n+]3[O-])cc2n1 (stereo not given)", "> 100 µM"),
    ("N#CC(C#N)=C/C=C/c1c(Cl)cccc1Cl", "3.34 µM"),
    ("O=C(O)CC(NC(=O)/C(=C/c1ccccc1)NC(=O)c1ccccc1)C(=O)O (stereo not given)", "> 100 µM"),
    ("Cc1ccc(NC(=O)CC/C(CC(=O)C(C)(C)C)=N\\NC(=O)C[n+]2ccccc2)cc1C", "> 100 µM"),
    ("CCOC(=O)C1(C#N)C(=O)c2cc[n+](CC[n+]3ccc4c(c3)C(=O)C(C#N)(C(=O)OCC)C4=O)cc2C1=O (stereo not given)", "> 100 µM"),
    ("O=c1cc(NNCc2ccccc2)[nH]c(=O)[nH]1", "> 100 µM"),
    ("COc1cc2cc(C(=O)N3CC(CCl)c4ccc([N+](=O)[O-])cc43)[nH]c2c(OC)c1OC (stereo not given)", "> 100 µM"),
    ("NS(=O)(=O)c1ccc(Nc2c3ccccc3nc3c(C(=O)N4CCN(CCO)CC4)cccc23)cc1", "> 100 µM"),
    ("COc1ccc2[nH]c3c(c2c1)CC(=O)N1CCCC(CC3O)C1 (stereo not given)", "> 100 µM"),
]

// TGI value for CCOC(=O)CNC(=O)C(Cc1ccccc1)NC(=O)C(C)(C)NC(=O)OCc1ccccc1 (stereo not given) (Cbz-[Aib]-[ξF]-Gly-OEt) : > 100 µM

Entry `CCOc1ccc(/C=C/c2cc(OC)c(OC)c(OC)c2)cc1` , TGI reported as 6.32 µM

TGI for `COc1cc(/C=C2\N=C(c3ccccc3)N(c3ccc(C(=O)c4ccccc4)cc3N3C(=O)/C(=C/c4ccc(O)c(OC)c4)N=C3c3ccccc3)C2=O)ccc1O` is 9.69 µM

Record summary for `O=C(O)c1cc(=O)cc(C(=O)O)o1` : reported TGI = > 100 µM

For record CC[C@]12C=CCN3CCC4(c5cc([C@@]6(C(=O)OC)CC7CN(CCc8c6[nH]c6ccccc86)C[C@@H]6CCCC[C@H]76)c(OC)cc5N(C)C4[C@](O)(C(=O)OC)C1OC(C)=O)[C@@H]32 (stereo not given in full) the listed TGI is < 0.01 µM
